# Protocol details: qHTS of Nrf2 Activators; also: nearly all actives have a fitted effect of over 65% in size; also: potency is read from the fitted curve at half-maximal effect
# Measurement context: AREc32 ARE-luciferase reporter (MCF7-derived line), luminescence, 24 h; series mostly up to 46.1 µM
# Protocol: Many diseases have some form of oxidative stress injury and ties to inflammation, causing a host of problems for the patient. The antioxidant response element (ARE) plays an important role in alleviating the harmful effects of oxidative stress. […] 5 uL of 1000 cells/well of AREc32_Fluc cells are seeded into 1536-well plate in OPTI-MEM medium with 5% FBS. […] After the addition of 2.5 uL of Steady-Glo. the plates are kept at RT for 30 min, before they are read on the ViewLux.
Out of some 410,000 compounds screened, about 1,200 (0.29%) were called active. About 2% were inconclusive and are not listed. Only a selection was taken, and actives are over-represented in it overall.
Outcome measure: Potency

[in] // lookup Potency for CCN(CC)CCNc1ncnc2c1cnn2-c1cc(Cl)ccc1C
[out] inactive

[in] // lookup Potency for CC1CCC2(CC1)N=C(c1ccccc1)C(=O)N2CC(=O)Nc1ccc(F)c(Cl)c1 (stereo not given)
[out] inactive

[in] // lookup Potency for C=CCSc1nnc2c(n1)-c1cccc3cccc-2c13
[out] 12.6 µM (active)

[in] // lookup Potency for CCOC(=O)c1c(C)oc2nc(C)nc(Nc3ccc(CC)cc3)c12
[out] inactive

Continuing:
[in] // lookup Potency for Cn1nc(-c2ccccc2)c(-c2ccccc2)c(C(=O)Nc2ccc(S(N)(=O)=O)cc2)c1=O
[out] inactive
